Measured values drawn from paper PMC9739877 for this set.

ASSAY REMARKS: in vitro
PARTICULARS: both, human, plasma
MEASURED QUANTITY: half-life at 2 μM

Briefly, half-life at 2 μM measured for CC(C)[N+](C)(CCOC(=O)C1c2ccccc2Oc2ccccc21)C(C)C [Propantheline bromide] : 0.187 h

Briefly, half-life at 2 μM measured for COc1ccc(N(C)C(=O)[C@H](Cc2cc(F)cc(F)c2)NC(=O)CN2CCN(C(=O)Cc3c[nH]c4ccc(F)cc34)CC2=O)cc1 [F2-7f] : > 4.82 h

Briefly, half-life at 2 μM measured for Cc1[nH]c2ccccc2c1CC(=O)N[C@@H](Cc1ccccc1)C(=O)N(C)c1ccccc1 [PF74] : > 4.82 h

----------
System: HIV-1 (IIIB)
ASSAY REMARKS: microbe, parasite or virus in culture
Assay type: cell-based
PARTICULARS: Human immunodeficiency virus 1, MT4, 50% protection against HIV-induced cytotoxicity, MT-4 cells, MTT
Consider the following compounds; for each one, report its pEC50.
// field semantics: pEC50 = negative decimal log of concentration (mol/L)

Lab entry: HIV-1 (IIIB) assay, compound COc1ccc(N(C)C(=O)[C@H](Cc2cc(F)cc(F)c2)NC(=O)CN2CCN(C(=O)Cc3c[nH]c4ccc(F)cc34)CC2=O)cc1 , pEC50 = 5.23

Lab entry: HIV-1 (IIIB) assay, compound COc1ccc(N(C)C(=O)[C@H](Cc2ccccc2)NC(=O)CN2CCN(C(=O)Cc3c[nH]c4ccc(OC)cc34)CC2=O)cc1 , pEC50 = 4.84

Lab entry: HIV-1 (IIIB) assay, compound COc1ccc(N(C)C(=O)[C@H](Cc2ccccc2)NC(=O)CN2CCN(C(=O)c3ccc(NS(C)(=O)=O)cc3)CC2=O)cc1 , pEC50 = 3.72

Lab entry: HIV-1 (IIIB) assay, compound COc1ccc(N(C)C(=O)[C@H](Cc2cc(F)cc(F)c2)NC(=O)CN2CCN(C(=O)c3ccc(NC(=O)C(F)(F)F)cc3)CC2=O)cc1 , pEC50 = 4.86

Lab entry: HIV-1 (IIIB) assay, compound COc1ccc(N(C)C(=O)[C@H](Cc2ccccc2)NC(=O)CN2CCN(C(=O)c3ccc(NC(=O)C(F)(F)F)cc3)CC2=O)cc1 , pEC50 = 3.80

Lab entry: HIV-1 (IIIB) assay, compound COc1ccc(N(C)C(=O)[C@H](Cc2ccccc2)NC(=O)CN2CCN(C(=O)Cc3c[nH]c4ccccc34)CC2=O)cc1 , pEC50 = 4.82

----------
Tested on: HIV-1 (IIIB)
ASSAY REMARKS: microbe, parasite or virus in culture
Format: cell-based
PARTICULARS: Human immunodeficiency virus 1, MT4, 50% protection against HIV-induced cytotoxicity, MT-4 cells, MTT
Consider the following compounds; for each one, report its EC50.
Numbers only; they are read as µM.

Briefly, EC50 measured for COc1ccc(N(C)C(=O)[C@H](Cc2ccccc2)NC(=O)CN2CCN(C(=O)Cc3c[nH]c4ccc(O)cc34)CC2=O)cc1 [7e] : 198

Briefly, EC50 measured for COc1ccc(N(C)C(=O)[C@H](Cc2ccccc2)NC(=O)CN2CCN(C(=O)Cc3c[nH]c4ccc(F)cc34)CC2=O)cc1 [7f] : 21.8

Briefly, EC50 measured for COc1ccc(N(C)C(=O)[C@H](Cc2ccccc2)NC(=O)CN2CCN(C(=O)c3ccc(NC(C)=O)cc3)CC2=O)cc1 [7g] : 203

Briefly, EC50 measured for COc1ccc(N(C)C(=O)[C@H](Cc2cc(F)cc(F)c2)NC(=O)CN2CCN(C(=O)c3ccc(NC(C)=O)cc3)CC2=O)cc1 [F2-7g] : 177
